Give measured IC50 for each item. Keep answers brief.
- Tested on: CEM cells HIV-1 protection, formazan growth assay
- ASSAY_TEXT: NCI AIDS Antiviral Assay
- MEASUREMENT_PARAMETERS: measured here: growth of uninfected CEM cells
Kindly answer with a numeric value in µM, unit omitted.

Task: CEM cells HIV-1 protection, formazan growth assay / IC50 / O=C(N=Nc1cccc(Cl)c1)NNc1cccc(Cl)c1 : value?
Result: 15.5

Task: Quick one: CC(=O)[O-].COc1cccc(/C=N\[N-]C(=O)c2ccncc2)c1.[Cu+2].[OH3+].[OH3+].c1cnc2c(c1)ccc1cccnc12
Result: 61.7

Task: Again, but for CCCCCCCNC1=C(O)c2ccccc2C(=O)C1=O
Result: 55

Task: Now consider OC1(c2ccc(Cl)cc2)c2ccccc2C2=NCc3ccccc3CN21 (centres undefined) and answer again.
Result: 33.1

----------
- System: CEM cells HIV-1 protection, formazan growth assay
- ASSAY_TEXT: NCI AIDS Antiviral Assay
ATTRIBUTE_MEASURED: EC50

Task: Entry Nc1nn2c(C(Br)Br)cc(C(Br)Br)nc2c1[N+](=O)[O-] has what EC50?
Result: > 200 µM

Task: Can you handle COc1ccc(N/N=C/C2=CC(C)(C)C(C#N)(C#N)C(O)=C2C#N)cc1 next?
Result: > 200 µM

Task: Please do the same for CC12CCCC1C1CC=C3CC(SC4CCC5(C)C(=CCC6C7CCCC7(C)CCC65)C4)CCC3(C)C1CC2 (stereo unspecified) as well.
Result: > 200 µM

Task: Also check COP(=O)(OC)/C(C#N)=C/c1ccco1
Result: > 1100 µM

Task: # repeat for COc1ccc(C2C(Cl)C(=O)N2n2cnc3ccccc3c2=O)cc1OC (stereo unspecified)
Result: > 339 µM

Task: Input CC1=Nc2c(C#N)ncn2N=C(C)C1
Result: > 200 µM

----------
- Test system: CEM cells HIV-1 protection, formazan growth assay
- ASSAY_TEXT: NCI AIDS Antiviral Assay
- Description: The ability of compounds to protect human CEM cells from HIV-1 infection is measured as a screen for new compounds capable of inhibiting the HIV virus. Five concentrations of drug were tested on uninfected and infected cells and cell growth was measured using a soluble formazan assay. […] Compounds that provided at least 50% protection were retested. Compounds that provided at least 50% protection on retest were listed as moderately active. […]
pEC50: −log10 of the molar value. Where a SMILES comes first, the peptide text is derived from it.
ATTRIBUTE_MEASURED: pEC50

Task: Give the measured pEC50 of CC1=C(C)C(N2CCOCC2)CS(=O)(=O)O1 (stereo not drawn) .
Result: < 3.70

Task: Now consider CC(NC(=O)CNC(=O)C(N)CO)C(=O)NC(CCC(=O)O)C(=O)NC(CCCCN)C(=O)NC(C(=O)NC(CCC(N)=O)C(=O)NC(CCC(=O)O)C(=O)NC(CCC(N)=O)C(=O)NC(CCCN=C(N)N)C(=O)NC(C)C(=O)NC(CC(N)=O)C(=O)NC(C)C(=O)NC(Cc1cnc[nH]1)C(=O)NC(CO)C(=O)O)C(C)O (stereo not drawn) (H-SGAEKTQEQRANAHS-OH; configuration not given here) and answer again.
Result: < 4.00

Task: Consider next the compound NC(N)=NNC(O)(C(=O)O)C(=O)O in the same way.
Result: < 3.70

----------
- System: CEM cells HIV-1 protection, formazan growth assay
- ASSAY_TEXT: NCI AIDS Antiviral Assay;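 active = compounds giving half or more protection of infected cells from virus-caused growth loss, again on retest; inactive = the rest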
Valid outcomes are listed here; reply with one: T (active), F (inactive)

Task: Dear all, I need the recorded test outcome for Cc1cc(NS(=O)(=O)c2ccc(Nc3c4ccccc4nc4c(C(=O)Nc5ccc(S(=O)(=O)N=C(N)N)cc5)cccc34)cc2)no1 , thank you.
Result: T

Task: Proceed to O=C(O)c1cc2cc(Br)ccc2cc1O
Result: F

Task: And what about the molecule NC(CSS(=O)(=O)O)=NCc1cccs1 ?
Result: F

Task: Another molecule to look at: N=C(N)SCc1ccc2nsnc2c1
Result: F

Task: // next record OC(c1ccccc1)(c1ccccc1)C1CC1c1ccncc1 (centres undefined)
Result: F

Task: Another: NC(Cc1ccc(O)c(O)c1)P(=O)(O)O (centres undefined)
Result: F

Task: What do you have for Cc1ccc(NC(c2ccccc2)P(=O)(c2ccccc2)c2ccccc2)cc1 (centres undefined) ?
Result: F

Task: Input Clc1nnc(-c2ccccc2)s1
Result: F

Task: Please do the same for CN(C)CCN1CCC(Cc2ccccc2)CC1 as well.
Result: F

Task: Please do the same for CCn1c2ccccc2n2c(=O)c3c(c(C#N)c12)CCCC3 as well.
Result: F

Task: Quick one: Cn1c(=O)c2nc(N3CCCCC3)cnc2n(C)c1=O
Result: F

Task: Follow-up entry: CC(Nc1cc(Cl)cc(Cl)c1)c1ccncc1 (centres undefined)
Result: F

Task: Next entry: c1ccc2c(c1)[nH]c1c(N3CCOCC3)nnc(N3CCOCC3)c12
Result: F

Task: Then what about the molecule COC(=O)CC1CN(C(=O)OCc2ccccc2)C(C)(C)O1 (centres undefined) ?
Result: F

Task: # repeat for CSC1N=CNc2c1sc(=S)n2-c1ccccc1 (centres undefined)
Result: F

Task: Entry to check: COc1ccc(C2=C(OC(=O)N(C)C)c3cccn3-c3cc(C(F)(F)F)ccc3S2)cc1
Result: F

Task: # iterate: CCOP(=O)(OCC)C(C)(C)OC(=O)NC(F)(F)F
Result: F

Task: Quick one: CC(=O)c1cccn1/C=C(\OC(=O)OC(C)(C)C)c1ccc[nH]1
Result: F

Task: Also need CC1(C)CCCCC1/C=C/C(CC(O)(C(F)(F)F)C(F)(F)F)=N\Nc1ccc([N+](=O)[O-])cc1[N+](=O)[O-] (centres undefined) , thanks.
Result: F

Task: Cool, now Cc1cc(C(O)CCCc2ccccc2)cc(C)c1O (centres undefined)
Result: F

Task: Entry CC(C)=CCC/C(=C/CC/C(C)=C/CCc1ccoc1)C(=O)O please
Result: F

Task: Subsequent entry: NC(CS)=NCCc1nc2ccccc2[nH]1
Result: F

Task: Also check O=C1CCC23/C=C/C(=O)NCCCCNCCCNC(=O)/C=C/c4ccc(c2c4)OC3C1 (centres undefined)
Result: F

Task: COc1ccc2c(c1OC)CN(C)CCc1cc3c(cc1C(=O)C2)OCO3 , same question.
Result: F

----------
- System: CEM cells HIV-1 protection, formazan growth assay
- ASSAY_TEXT: NCI AIDS Antiviral Assay
- MEASUREMENT_PARAMETERS: measured here: growth of uninfected CEM cells
Where a SMILES comes first, the peptide text is derived from it. [ ]: non-standard residue; d: D form. The star is where a group is joined. ξ: configuration not given here. NMeF = CN[CH](Cc1ccccc1)C(=O)O; ξNMe2Val = CC(C)C(C(=O)*)N(C)C; NMeV = CN[CH](C(=O)O)C(C)C; OtBu = CC(C)(C)O*
ATTRIBUTE_MEASURED: IC50 (µM)
Report the figure in µM without appending any unit label.

Task: Tell me reported IC50 for COC(=O)N/N=C(\C)C(CN1CCCCC1)C(C1=C(O)c2ccccc2OC1)c1ccccc1 (centres undefined) , tested with CEM cells HIV-1 protection, formazan growth assay.
Result: 42.7

Task: Would you kindly repeat that for COC(=O)c1cc(C(=C(Cl)Cl)c2cc(C(=O)OC)c(OC)c(Br)c2C)c(C)c(Br)c1OC ?
Result: 79.4

Task: And for CN(O)C(=O)c1ccc(OCc2cccc(Cl)c2)cc1 ?
Result: 12.6

Task: Now consider OC1/C(=C/c2ccccc2)CNC/C1=C\c1ccccc1 (centres undefined) .
Result: 79.4

Task: Repeat for the following compound: CC(C)(C)c1ccc(-c2nc3ccc([N+](=O)[O-])cc3c(=O)o2)cc1
Result: 8.91

Task: Now the compound O=C1C(NS(=O)(=O)c2ccccc2)=C(N(Cc2ccccc2)Cc2ccccc2)C(=O)c2ccccc21
Result: 72.4

Task: Repeat for the following compound: CC(=O)Nc1ccc(S2=Nc3ccccc3S2)cc1 (centres undefined)
Result: 16.2

Task: // repeat for CC(C)C(C(=O)N(C)C(Cc1ccccc1)C(=O)N(C)C(C(=O)N(C)C(C(=O)N1CCCC1C(=O)OC(C)(C)C)C(C)C)C(C)C)N(C)C (centres undefined) (ξNMe2Val-[NMeF][NMeV][NMeV]P-OtBu; configuration not given here) and report
Result: 110

Task: Please do the same for O=C1C(Cl)=C(N2CCN(C3=C(Cl)C(=O)c4ccccc4C3=O)CC2)C(=O)c2ccccc21 as well.
Result: 1.32

Task: Then this compound: COc1ccc(NC(=S)NNC(=O)c2nsc3ccccc23)cc1
Result: 19.1

Task: Consider next the compound N=c1n(CC(=O)NC23CC4CC(CC(C4)C2)C3)c2ccccc2n1CC(=O)NC12CC3CC(CC(C3)C1)C2 in the same way.
Result: 3.72

Task: Next compound: Cc1cc(=O)n2nc(CSc3nnc(Sc4cc(O)ccc4O)s3)sc2n1
Result: 28.8

Task: Same question, N=S(=O)(c1ccccc1)c1ccccc1[N+](=O)[O-] (centres undefined) this time
Result: 91.2
